Target: Eg51-406 (Homo sapiens, UniProt P52732)
Construct: read as Eg5 residues 1-406
Sequence (P52732 1-1056): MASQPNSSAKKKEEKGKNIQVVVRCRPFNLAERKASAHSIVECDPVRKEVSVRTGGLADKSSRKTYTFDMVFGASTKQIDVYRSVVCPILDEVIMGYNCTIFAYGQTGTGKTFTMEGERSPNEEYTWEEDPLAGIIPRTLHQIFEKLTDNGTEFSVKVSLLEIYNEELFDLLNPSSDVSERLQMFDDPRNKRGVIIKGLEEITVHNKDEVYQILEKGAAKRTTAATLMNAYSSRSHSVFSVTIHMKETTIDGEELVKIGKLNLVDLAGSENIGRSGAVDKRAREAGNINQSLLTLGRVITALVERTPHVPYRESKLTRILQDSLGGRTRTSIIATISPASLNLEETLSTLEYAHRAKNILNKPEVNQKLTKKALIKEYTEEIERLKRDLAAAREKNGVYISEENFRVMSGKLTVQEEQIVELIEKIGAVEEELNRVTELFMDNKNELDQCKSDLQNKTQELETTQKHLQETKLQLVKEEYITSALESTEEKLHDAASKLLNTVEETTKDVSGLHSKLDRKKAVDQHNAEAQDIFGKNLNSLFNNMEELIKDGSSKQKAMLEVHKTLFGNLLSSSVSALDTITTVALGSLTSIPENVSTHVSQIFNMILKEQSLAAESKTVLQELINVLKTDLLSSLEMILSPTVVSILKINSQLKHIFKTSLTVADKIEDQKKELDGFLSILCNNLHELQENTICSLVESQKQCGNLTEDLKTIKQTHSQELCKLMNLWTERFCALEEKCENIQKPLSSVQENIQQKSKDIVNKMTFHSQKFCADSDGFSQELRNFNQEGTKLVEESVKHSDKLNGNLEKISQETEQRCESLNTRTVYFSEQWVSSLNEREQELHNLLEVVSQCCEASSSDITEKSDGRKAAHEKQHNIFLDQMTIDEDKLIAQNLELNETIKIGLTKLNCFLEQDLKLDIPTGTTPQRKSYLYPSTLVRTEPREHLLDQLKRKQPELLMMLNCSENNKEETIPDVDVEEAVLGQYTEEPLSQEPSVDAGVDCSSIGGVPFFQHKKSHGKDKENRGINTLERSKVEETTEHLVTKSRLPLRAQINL
Experiment: Inhibition of kinesin Eg5 activity, recombinant Eg51-406
Details: recombinant Eg51-406 (Table 5)
Measurement Label: EC50 (µM)
Reply numerically in µM, unit not repeated.

So what's the measured EC50 for this one? O=C(C=C1c2ccccc2C(=O)c2ccccc21)c1ccc(O)c(O)c1
37.1
